system: bicuculline; assay: Antagonism towards the convulsions and the mortality caused by bicuculline; format: in vivo, mice; settings: Mus musculus, po, 1 h, read-out: Median effective dose (ED50) for antagonism towards bicuculline, Mortality
Assign labels as follows, please: satisfied for ED50 below 20 mg/kg; not satisfied for ED50 equal to or exceeding 20 mg/kg.

Would you please look over these solved cases?
O=C1CCN(c2ncc(-c3ccc(Cl)cc3Cl)nn2)CC1 [SR 42 826] ... satisfied
OC1CCN(c2ncc(-c3ccc(Cl)cc3Cl)cn2)CC1 [SR 42 824] ... satisfied
CC(=O)OC1CCN(c2ncc(-c3ccc(Cl)cc3Cl)cn2)CC1 [SR 43 651] ... satisfied
OC1CCN(c2ncc(-c3cccc4ccccc34)cn2)CC1 [SR 43 139] ... not satisfied

Lab note: ED50 threshold 20 mg/kg. Does this molecule come in strictly under it? CN(C)C(=O)OC1CCN(c2ncc(-c3ccccc3Cl)cn2)CC1 [SR 43 537]
satisfied

Lab note: ED50 threshold 20 mg/kg. Does this molecule come in strictly under it? OC1CCN(c2ncc(-c3ccc(Cl)cc3Cl)nn2)CC1 [SR 42 825]
satisfied

Lab note: ED50 threshold 20 mg/kg. Does this molecule come in strictly under it? OC1CCN(c2ncc(-c3ccccc3Cl)nn2)CC1 [SR 42 524]
not satisfied

Lab note: ED50 threshold 20 mg/kg. Does this molecule come in strictly under it? OC1CCN(c2ncc(-c3ccccc3Cl)cn2)CC1 [SR 42 505]
not satisfied

Lab note: ED50 threshold 20 mg/kg. Does this molecule come in strictly under it? COc1ccc(-c2cnc(N3CCC(O)CC3)nc2)cc1 [SR 43 159]
not satisfied

Lab note: ED50 threshold 20 mg/kg. Does this molecule come in strictly under it? CNC(=O)OC1CCN(c2ncc(-c3ccccc3Cl)cn2)CC1 [SR 43 543]
satisfied

Lab note: ED50 threshold 20 mg/kg. Does this molecule come in strictly under it? CN(C)C(=O)OC1CCN(c2ncc(-c3ccc(Cl)cc3Cl)cn2)CC1 [SR 43 539]
satisfied

* * *

assay: Determination of the lethal dose in mice after acute administration; conditions: mouse, in vivo, po, 1000 mg/kg, administered orally, read-out: Percent toxicity (percentage of animals which die within 72 hours)
Assay endpoint: mortality at 72 h (%)
Value expressed in %; do not type the unit.

These recorded examples may help you get a feel for the data.
OC1CCN(c2ncc(-c3ccccc3Cl)nn2)CC1 ... 0
COc1ccc(-c2cnc(N3CCC(O)CC3)nc2)cc1 ... 0
OC1CCN(c2ncc(-c3cccc(Cl)c3)cn2)CC1 ... 0
OC1CCN(c2ncc(-c3ccccc3Cl)cn2)CC1 ... 80
OC1CCN(c2ncc(-c3cccc4ccccc34)cn2)CC1 ... 0
O=C(OC1CCN(c2ncc(-c3ccccc3Cl)cn2)CC1)N1CCC(O)CC1 ... 0

For the molecule OC1CCN(c2ncc(-c3ccc(Cl)cc3Cl)nn2)CC1 , what mortality at 72 h is on record?
80

For the molecule OC1CCN(c2ccc(-c3ccccc3Cl)cn2)CC1 , what mortality at 72 h is on record?
0

For the molecule CNC(=O)OC1CCN(c2ncc(-c3ccccc3Cl)cn2)CC1 , what mortality at 72 h is on record?
20

* * *

test: Determination of the lethal dose in mice after acute administration; details: mouse, in vivo, po, 250 mg/kg, administered orally, read-out: Percent toxicity (percentage of animals which die within 72 hours)
Reported mortality at 72 h values follow for various compounds
Value expressed in %; do not type the unit.

O=C(OC1CCN(c2ncc(-c3ccccc3Cl)cn2)CC1)N1CCC(O)CC1 ... 0
COc1ccc(-c2cnc(N3CCC(O)CC3)nc2)cc1 ... 0
OC1CCN(c2ncc(-c3ccc(Cl)cc3Cl)nn2)CC1 ... 20
O=C1CCN(c2ncc(-c3ccccc3Cl)nn2)CC1 ... 0

For the compound OC1CCN(c2ncc(-c3cccc4ccccc34)cn2)CC1 , what mortality at 72 h is on record?
0

For the compound OC1CCN(c2ncc(-c3ccccc3Cl)nn2)CC1 , what mortality at 72 h is on record?
0
